# experiment: Metabolic stability in liver microsomes, Method I, rat
# Type: in vitro ADME
# condition-set: rat, microsomes, 1 μM test compound
Structures can show the parent of a compound that is named as a salt.
parameter: microsomal CLint (µL/min/mg)

C[C@H](Nc1ncc(F)c(N2C(=O)OC[C@@H]2CF)n1)c1cn(-c2ccc(C(F)F)cc2)cn1 [434 as TFA salt]	41
C[C@H](Nc1nccc(N2C(=O)OC[C@@H]2CF)n1)c1cn(-c2ccc(Cl)c(F)c2)cn1 [473 as TFA salt]	72.5
C[C@H](Nc1nccc(N2C(=O)OC[C@@H]2[C@H](C)F)n1)c1cn(-c2ccc(C(F)F)cc2)cn1 [456 as TFA salt]	44.7
C[C@H](Nc1nccc(N2C(=O)OC[C@@H]2CF)n1)c1cn(-c2ccc(C(F)F)c(F)c2)cn1 [475 as TFA salt]	54

###

# experiment: Metabolic stability in liver microsomes, Method II, rat
# Format: in vitro ADME
# condition-set: male, Sprague-Dawley, 1 μM test compound, NADPH + UDPGA
parameter: microsomal CLint at 1 μM (µL/min/mg)

// known answers, use as guide
C[C@H](Nc1nccc(N2C(=O)OC[C@@H]2[C@H](C)F)n1)c1ncc(-c2ccnc(C(F)(F)F)c2)cc1F	49.8
C[C@H](Nc1nccc(N2C(=O)OC[C@@H]2[C@H](C)F)n1)c1cn(-c2ccc(F)cc2)cn1	92.4
C[C@H](Nc1nccc(N2C(=O)OC[C@@H]2CF)n1)c1cn(-c2ccc(Cl)cc2)cn1	75.4

(A) C[C@H](Nc1nccc(N2C(=O)OC[C@@H]2[C@H](C)F)n1)c1ncc(-c2cccc(C(F)(F)F)c2F)cn1
(B) C[C@H](Nc1ncc(F)c(N2C(=O)OC[C@@H]2[C@H](C)F)n1)c1cn(-c2ccc(Cl)cc2F)cn1
Problem: Given the entries A and B , determine which has the lower reported microsomal CLint at 1 μM. Lab log: write the label of the selected item as the result.
A

###

# experiment: Metabolic stability in liver microsomes, Method I, mouse
# Type: in vitro ADME
# condition-set: male, CD-1, 1 μM test compound
parameter: microsomal CLint at 1 μM (µL/min/mg)

(P) C[C@H](Nc1nccc(N2C(=O)OC[C@@H]2[C@@H](C)N)n1)c1cnc(-c2ccc(Cl)cc2)s1
(Q) C[C@H](Nc1nccc(N2C(=O)OC[C@@H]2[C@H](C)F)n1)c1ncc(-c2cccc(C(F)(F)F)c2F)cn1
(R) C[C@H](Nc1nccc(N2C(=O)OC[C@@H]2[C@H](C)F)n1)c1ccc(-c2ccnc(C(F)(F)F)c2)cn1
(S) C[C@H](Nc1nccc(N2C(=O)OC[C@@H]2[C@H](C)O)n1)c1ccc(CN2CCN(C)C(C)(C)C2)c(F)c1
Sort the 4 molecules by microsomal CLint at 1 μM; largest first, smallest last. Please list the labels according to the requested order.
Q, S, P, R
(Q: 275 µL/min/mg, S: 173 µL/min/mg, P: 51 µL/min/mg, R: 28.9 µL/min/mg)

(P) Cc1cc(-c2ccnc(C(F)(F)F)c2)cnc1[C@H](C)Nc1nccc(N2C(=O)OC[C@@H]2[C@@H](C)O)n1
(Q) C[C@H](Nc1nccc(N2C(=O)OC[C@@H]2[C@H](C)F)n1)c1cn(-c2ccc(F)cc2)cn1
(R) Cc1cc([C@H](C)Nc2ncc(F)c(N3C(=O)OC[C@@H]3[C@H](C)F)n2)ncc1-c1ccnc(C(F)(F)F)c1
Ascending sort, microsomal CLint at 1 μM. Put the labels in the requested order and write them down.
Q, R, P
(Q: 33.1 µL/min/mg, R: 47.3 µL/min/mg, P: 67.7 µL/min/mg)

(P) C[C@H](Nc1ncc(F)c(N2C(=O)OC[C@@H]2CF)n1)c1ncc(-c2ccc(Cl)cc2)o1
(Q) C[C@H](Nc1nccc(N2C(=O)OC[C@@H]2[C@H](C)F)n1)c1ncc(-c2ccnc(C(F)(F)F)c2)cc1F
Of P and Q , which carries the smaller reported microsomal CLint at 1 μM figure? Answer by stating the label of the chosen item.
Q
(Q: 35.5 µL/min/mg, P: 51.5 µL/min/mg)

###

# experiment: Metabolic stability in liver microsomes, Method I, rat
# Type: in vitro ADME
# condition-set: male, Sprague-Dawley, rat, liver microsomes, 1 μM test compound
parameter: microsomal CLint at 1 μM (µL/min/mg)

C[C@H](Nc1nccc(N2C(=O)OC[C@@H]2CF)n1)c1cn(-c2ccc(Cl)cc2)cn1 [Example 404]	44.6
CC(Nc1nccc(N2C(=O)OC[C@@H]2[C@@H](C)O)n1)c1nc(-c2ccc3c(c2)OC(F)(F)O3)no1 (single isomer, unassigned) [Example 169]	68.8
C[C@H](Nc1nccc(N2C(=O)OC[C@@H]2[C@H](C)F)n1)c1cn(-c2ccc(F)cc2)cn1 [Example 401]	30.4

(1) Cc1cc([C@H](C)Nc2ncc(F)c(N3C(=O)OC[C@@H]3[C@H](C)F)n2)ncc1-c1ccnc(C(F)(F)F)c1 [Example 470]
(2) Cc1cc(-c2ccnc(C(F)(F)F)c2)cnc1[C@H](C)Nc1nccc(N2C(=O)OC[C@@H]2[C@@H](C)O)n1 [Example 61]
Endpoint returns whichever of 1 and 2 has the numerically higher microsomal CLint at 1 μM. Answer with the label corresponding to your selection.
1

###

# experiment: Metabolic stability in liver microsomes, Method II, mouse
# Type: in vitro ADME
# condition-set: 1 μM test compound, NADPH + UDPGA
Where a name gives a salt, the structure may show the parent alone.
parameter: microsomal CLint (µL/min/mg)

Before answering, review these 2 worked examples.
C[C@H](Nc1ncc(F)c(N2C(=O)OC[C@@H]2CF)n1)c1cn(-c2ccc(F)c(Cl)c2)cn1 [472 as TFA salt]	45.6
C[C@H](Nc1nccc(N2C(=O)OC[C@@H]2[C@H](C)F)n1)c1cn(-c2ccc(F)cc2F)cn1 [478 as TFA salt]	55.3

(1) C[C@H](Nc1nccc(N2C(=O)OC[C@@H]2CF)n1)c1cn(-c2ccc(F)cc2)cn1 [471 as TFA salt]
(2) C[C@H](Nc1nccc(N2C(=O)OC[C@@H]2[C@H](C)F)n1)c1cn(-c2ccc(Cl)cc2F)cn1 [476 as TFA salt]
// select label with min value of measured microsomal CLint from [ 1 , 2 ] Reply briefly: the label of your chosen item.
1

###

# experiment: Metabolic stability in liver microsomes, Method II, human
# Assay type: in vitro ADME
# condition-set: pooled liver microsomes, 1 μM test compound, NADPH + UDPGA
parameter: microsomal CLint at 1 μM (µL/min/mg)
// units = µL/min/mg; emit number, no label

What measured microsomal CLint at 1 μM goes with C[C@H](Nc1ncc(F)c(N2C(=O)OC[C@@H]2[C@H](C)F)n1)c1cn(-c2ccc(Cl)cc2F)cn1 [Example 477] ?
30.4

###

# experiment: Metabolic stability in liver microsomes, Method I, human
# Format: in vitro ADME
# condition-set: pooled liver microsomes, 1 μM test compound
parameter: microsomal CLint at 1 μM (µL/min/mg)

Cc1cc(-c2ccnc(C(F)(F)F)c2)cnc1[C@H](C)Nc1nccc(N2C(=O)OC[C@@H]2[C@@H](C)O)n1	66.4

(a) Cc1cc([C@H](C)Nc2ncc(F)c(N3C(=O)OC[C@@H]3[C@H](C)F)n2)ncc1-c1ccnc(C(F)(F)F)c1
(b) C[C@H](Nc1nccc(N2C(=O)OC[C@@H]2[C@H](C)O)n1)c1ccc(CN2CCN(C)C(C)(C)C2)c(F)c1
(c) C[C@H](Nc1nccc(N2C(=O)OC[C@@H]2[C@H](C)F)n1)c1ncc(-c2cccc(C(F)(F)F)c2F)cn1
Rank entries according to their microsomal CLint at 1 μM, from the largest number down. Write the labels out in the order the request specifies.
b, a, c

###

# experiment: Metabolic stability in liver microsomes, Method II, mouse
# Type: in vitro ADME
# condition-set: male, CD-1, 1 μM test compound, NADPH + UDPGA
parameter: microsomal CLint at 1 μM (µL/min/mg)
Write the number in µL/min/mg without appending the unit.

Consider the molecule shown here: "C[C@H](Nc1ncc(F)c(N2C(=O)OC[C@@H]2[C@H](C)F)n1)c1cn(-c2ccc(Cl)cc2F)cn1" What is its recorded microsomal CLint at 1 μM?
167

###

# experiment: Metabolic stability in liver microsomes, Method I, human
# Format: in vitro ADME
# condition-set: pooled liver microsomes, 1 μM test compound
parameter: microsomal CLint at 1 μM (µL/min/mg)

C[C@H](Nc1nccc(N2C(=O)OC[C@@H]2[C@@H](C)N)n1)c1cnc(-c2ccc(Cl)cc2)s1 [Example 380]	31.1

(I) CC(Nc1nccc(N2C(=O)OC[C@@H]2[C@@H](C)O)n1)c1nc(-c2ccc(C(F)(F)F)cc2)no1 (single isomer, unassigned) [Example 175]
(II) C[C@H](Nc1nccc(N2C(=O)OC[C@@H]2[C@H](C)F)n1)c1ccc(-c2ccnc(C(F)(F)F)c2)cn1 [Example 468]
Consider I and II . Which of these has its microsomal CLint at 1 μM at a higher number? // caller expects the label of the chosen entry
II

Where do the numbers come from? From patent US9434719B2.
